# experiment summary: Half life in dog at 0.5 mg/kg, iv and 1 mg/kg, po
# Type: ADME, organism-based, Canis lupus familiaris
# protocol conditions: in vivo
Each entry below lists one item and its recorded half-life value.
Kindly provide the numeric value in h only, without the unit symbol.

Solved cases (2 shown):
CN(C)Cc1cc(CNS(C)(=O)=O)ccc1Oc1ccc(OC(F)(F)F)cc1 : 4
CN[C@H]1CC[C@@H](c2ccc(Cl)c(Cl)c2)c2ccc(S(N)(=O)=O)cc21 : 7

[in] Item under review: CN(C)Cc1cc(NS(C)(=O)=O)ccc1Oc1ccc(C(F)(F)F)cc1 . Reported half-life?
[out] 4

====

# test system: Sodium-dependent serotonin transporter (Homo sapiens, UniProt P31645)
# Sequence (P31645 whole entry): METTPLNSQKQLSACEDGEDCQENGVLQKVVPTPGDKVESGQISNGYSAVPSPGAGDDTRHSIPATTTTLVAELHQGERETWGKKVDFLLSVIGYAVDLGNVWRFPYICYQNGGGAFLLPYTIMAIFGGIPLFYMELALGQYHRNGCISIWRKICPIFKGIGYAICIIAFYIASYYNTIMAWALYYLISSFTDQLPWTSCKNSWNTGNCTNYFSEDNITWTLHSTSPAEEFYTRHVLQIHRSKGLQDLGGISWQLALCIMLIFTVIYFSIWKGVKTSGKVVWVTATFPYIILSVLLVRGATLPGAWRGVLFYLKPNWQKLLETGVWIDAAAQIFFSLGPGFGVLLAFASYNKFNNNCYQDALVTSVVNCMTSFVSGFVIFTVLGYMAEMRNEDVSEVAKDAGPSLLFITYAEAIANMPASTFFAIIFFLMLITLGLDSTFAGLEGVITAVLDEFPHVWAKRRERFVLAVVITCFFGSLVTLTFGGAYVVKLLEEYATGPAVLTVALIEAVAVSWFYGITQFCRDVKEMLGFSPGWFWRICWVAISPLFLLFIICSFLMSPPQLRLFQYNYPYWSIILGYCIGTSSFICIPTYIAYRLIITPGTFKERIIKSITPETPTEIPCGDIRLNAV
# experiment summary: Inhibition of [3H]5HT reuptake at human serotonin transporter expressed in HEK293 cells
# note: exactly 10 nM is not below, so it is NO; use YES for IC50 strictly under it

Example cases with answers are listed next.
CN(C)Cc1ccccc1Oc1ccc(Cl)cc1 : NO
CN(C)Cc1cc(NS(C)(=O)=O)ccc1Oc1ccc(C(F)(F)F)cc1 : YES
CNCc1ccccc1Cc1ccc(SC)cc1 : YES
CSc1ccc(Sc2ccccc2CN(C)C)cc1 : NO
CSc1ccc(Oc2ccc(Br)cc2CN(C)C)cc1 : YES

Switching to the query record.
[in] is_below(IC50, 10 nM) for CN(C)Cc1ccccc1Cc1ccc(OC(F)(F)F)cc1 ?
[out] NO
